System: A549/ATCC NSCLC
test-method-notes: NCI-60 one-dose screen, 48 h
reported-conditions: 10 µM unless noted
About 83,000 compounds went through this panel and 20% of them were active in at least one assay; those are over-represented in the sample as a whole. Active and inactive are the calls of the source. Rule for the calls: active = growth percent below 10; inactive = the rest.
Reply using exactly one outcome from active, inactive

Request: Entry O=C(NCCN1CC1)C(=O)NCCN1CC1 : call = ?
Result: inactive

Request: Call for entry COC(=O)[C@@H](C)C[C@H](Cc1ccccc1)NC(=O)c1csc([C@@H](C[C@H](C(C)C)N(C)C(=O)[C@@H](NC(=O)[C@H]2CCCCN2C)C(C(F)(F)F)C(F)(F)F)OC(C)=O)n1 :
Result: inactive

Request: Answer briefly: the call reported for CN(C)C(=O)Oc1ccc(Br)cc1 in this assay.
Result: inactive

Request: Which outcome was entered for the compound COC(=O)[C@@H](C)C[C@H](Cc1ccccc1)NC(=O)c1csc([C@@H](C[C@H](C(C)C)N(C)C(=O)[C@@H](NC(=O)[C@H]2CCCCN2C)C2CC2)OC(C)=O)n1 in this test?
Result: inactive

Request: Tell me the recorded outcome of this test for O=C(Nc1ccc(O)cc1)C(Cl)(Cl)Cl .
Result: inactive

Request: // return assay outcome for O=C1C=C2C(=CCOC2O)O1 (centres undefined)
Result: inactive

Request: Kindly provide the recorded test outcome for the following compound: C=CCCCN=C=S
Result: inactive

Request: Recorded call for CCCC[C@H](NC(=O)[C@H]1CCCN1C)C(=O)N(C)[C@H](C[C@@H](OC(C)=O)c1nc(C(=O)N[C@@H](Cc2ccccc2)C[C@H](C)C(=O)OCC)cs1)C(C)C ?
Result: active

Request: Hi, sorry to bother you, what did the test record for COc1cc(C=C2c3ccccc3C(=O)c3ccccc32)ccc1OCCCCOc1cc2c(cc1OC)C(=O)N1CCCC1C=N2 (centres undefined) ?
Result: active

These data points were gathered from PubChem BioAssay (NCI).
